- System: 755483-174-R-J1-PDC complex spheroid growth, percent test/control;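 further: spheroids exposed to compounds for seven days before readout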
- Test method notes: Anticancer human tumor 755483-174-R-J1-PDC patient-derived rhabdomyosarcoma cell line growth inhibition [Asc]
- Test context: curve of first compound; second compound 1 µM
Record form. Attribute: IC50. Fill in for each entry.

Exam item: Fill blank: measured IC50 of the compound CCN1C(C(=O)NC23CCC(C(=O)O)(CC2)CC3)C(c2cccc(Cl)c2F)C2(C(=O)Nc3cc(Cl)ccc32)C12CCCCC2 (configuration not stated) + CNC(C)C(=O)NC1CN(S(=O)(=O)c2cccc(S(=O)(=O)N3CCC4CCC(C(=O)NC(c5ccccc5)c5ccccc5)N4C(=O)C(NC(=O)C(C)NC)C3)c2)CCC2CCC(C(=O)NC(c3ccccc3)c3ccccc3)N2C1=O is ____.
Marked response: < 9.49 nM

Exam item: Now the compound Cn1ncnc1[C@H]1c2n[nH]c(=O)c3cc(F)cc(c23)N[C@@H]1c1ccc(F)cc1 + CNC(C)C(=O)NC1CN(S(=O)(=O)c2cccc(S(=O)(=O)N3CCC4CCC(C(=O)NC(c5ccccc5)c5ccccc5)N4C(=O)C(NC(=O)C(C)NC)C3)c2)CCC2CCC(C(=O)NC(c3ccccc3)c3ccccc3)N2C1=O
Marked response: < 0.316 nM

Exam item: Now the compound O=C(c1cc(Cc2n[nH]c(=O)c3ccccc23)ccc1F)N1CCN(C(=O)C2CC2)CC1 + Cc1c(S(C)(=O)=O)c(-c2cc(F)cc(N3CCN(c4ccc(NS(=O)(=O)c5ccc(NC(CCN6CCC(C(=O)OCCCP(=O)(O)O)CC6)CSc6ccccc6)c(S(=O)(=O)C(F)(F)F)c5)cc4)CC3)c2)c(-c2ccc(Cl)cc2)n1C(C)C
Marked response: < 31.6 nM

Exam item: Now the compound C#Cc1c(F)ccc2cc(O)cc(-c3ncc4c(N5CC6CCC(C5)N6)nc(OCC56CCCN5CC(F)C6)nc4c3F)c12 (configuration not stated) + Cc1c(S(C)(=O)=O)c(-c2cc(F)cc(N3CCN(c4ccc(NS(=O)(=O)c5ccc(NC(CCN6CCC(C(=O)OCCCP(=O)(O)O)CC6)CSc6ccccc6)c(S(=O)(=O)C(F)(F)F)c5)cc4)CC3)c2)c(-c2ccc(Cl)cc2)n1C(C)C
Marked response: < 31.6 nM

Exam item: Now the compound CCN1C(C(=O)NC23CCC(C(=O)O)(CC2)CC3)C(c2cccc(Cl)c2F)C2(C(=O)Nc3cc(Cl)ccc32)C12CCCCC2 (configuration not stated) + Cc1c(S(C)(=O)=O)c(-c2cc(F)cc(N3CCN(c4ccc(NS(=O)(=O)c5ccc(NC(CCN6CCC(C(=O)OCCCP(=O)(O)O)CC6)CSc6ccccc6)c(S(=O)(=O)C(F)(F)F)c5)cc4)CC3)c2)c(-c2ccc(Cl)cc2)n1C(C)C
Marked response: < 9.49 nM

Exam item: Now the compound NC(=O)C(=Cn1cnc(-c2cc(C(F)(F)F)cc(C(F)(F)F)c2)n1)c1cncnc1 + Cc1c(S(C)(=O)=O)c(-c2cc(F)cc(N3CCN(c4ccc(NS(=O)(=O)c5ccc(NC(CCN6CCC(C(=O)OCCCP(=O)(O)O)CC6)CSc6ccccc6)c(S(=O)(=O)C(F)(F)F)c5)cc4)CC3)c2)c(-c2ccc(Cl)cc2)n1C(C)C
Marked response: < 0.949 nM

Exam item: Now the compound CCN1CCN(Cc2ccc(Nc3ncc(F)c(-c4cc(F)c5nc(C)n(C(C)C)c5c4)n3)nc2)CC1 + CNC(C)C(=O)NC1CN(S(=O)(=O)c2cccc(S(=O)(=O)N3CCC4CCC(C(=O)NC(c5ccccc5)c5ccccc5)N4C(=O)C(NC(=O)C(C)NC)C3)c2)CCC2CCC(C(=O)NC(c3ccccc3)c3ccccc3)N2C1=O
Marked response: < 3.16 nM
